Assignment: determine reported pKd for the given compounds.
# tested.system: human TYK2 (JH2domain-pseudokinase) (Homo sapiens (Human))
# Sequence (P29597 556-888): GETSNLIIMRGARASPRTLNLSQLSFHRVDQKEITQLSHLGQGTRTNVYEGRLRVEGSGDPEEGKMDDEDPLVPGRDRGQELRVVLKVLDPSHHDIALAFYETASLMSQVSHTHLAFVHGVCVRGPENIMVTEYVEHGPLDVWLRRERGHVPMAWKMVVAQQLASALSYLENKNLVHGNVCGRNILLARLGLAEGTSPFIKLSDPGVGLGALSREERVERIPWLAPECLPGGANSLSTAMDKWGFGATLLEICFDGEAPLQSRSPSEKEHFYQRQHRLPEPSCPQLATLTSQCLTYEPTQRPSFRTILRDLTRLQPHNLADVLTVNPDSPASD
# assay.info: TYK2 JH2 Domain Binding Assay (KINOMEscan competition binding)
# condition: KINOMEscan; 11-point 3-fold dilution, top concentration 30,000 nM; Kd measurements in duplicate; read-out: TYK JH2 (Kd)
Counter-ions that a name gives are not always drawn.
In textbook form, pKd equals minus log to base ten of the concentration in mol/L.

Query :: // lookup pKd | system=human TYK2 (JH2domain-pseudokinase) (Homo sapiens (Human)) | key= COc1ccccc1Nc1nc(N2CCN(C(C)=O)CC2C)ncc1C(N)=O (stereo not drawn)
Result :: 6.57

Query :: // lookup pKd | system=human TYK2 (JH2domain-pseudokinase) (Homo sapiens (Human)) | key= CNC(=O)c1cnc(N2CCCNCC2)nc1Nc1ccccc1OC
Result :: 5.34

Query :: // lookup pKd | system=human TYK2 (JH2domain-pseudokinase) (Homo sapiens (Human)) | key= CNC(=O)c1cnc(N2CC[C@H](C(=O)NC)C2)nc1Nc1cccc(-c2ncc(F)cn2)c1OC
Result :: 8.41

Query :: // lookup pKd | system=human TYK2 (JH2domain-pseudokinase) (Homo sapiens (Human)) | key= CNC(=O)[C@H]1CCN(c2ncc(C(N)=O)c(Nc3cccc(-c4ncc(F)cn4)c3OC)n2)C1
Result :: 8.80

Query :: // lookup pKd | system=human TYK2 (JH2domain-pseudokinase) (Homo sapiens (Human)) | key= CNC(=O)C1CN(c2ncc(C(N)=O)c(Nc3cccc(-c4ncc(F)cn4)c3OC)n2)C1
Result :: 9.30

Query :: // lookup pKd | system=human TYK2 (JH2domain-pseudokinase) (Homo sapiens (Human)) | key= CCOC(=O)C1CCN(c2ncc(C(=O)NC)c(Nc3ccc(C4CC4)nc3)n2)CC1
Result :: 5.60

Query :: // lookup pKd | system=human TYK2 (JH2domain-pseudokinase) (Homo sapiens (Human)) | key= CCOC(=O)C1CCN(c2ncc(C(N)=O)c(Nc3ccccc3OC)n2)CC1
Result :: 6.70

Query :: // lookup pKd | system=human TYK2 (JH2domain-pseudokinase) (Homo sapiens (Human)) | key= CCOC(=O)C1CCN(c2ncc(C(N)=O)c(Nc3ccc(C4CC4)nc3)n2)CC1
Result :: 6.18

Query :: // lookup pKd | system=human TYK2 (JH2domain-pseudokinase) (Homo sapiens (Human)) | key= COc1ccccc1Nc1nc(N2CCCN(C(=O)OC(C)(C)C)CC2)ncc1C(N)=O
Result :: 4.72

Query :: // lookup pKd | system=human TYK2 (JH2domain-pseudokinase) (Homo sapiens (Human)) | key= CC1CN(C(=O)OC(C)(C)C)CCN1c1ncc(C(N)=O)c(Nc2ccccc2S(C)(=O)=O)n1 (racemic)
Result :: 6.74

Query :: // lookup pKd | system=human TYK2 (JH2domain-pseudokinase) (Homo sapiens (Human)) | key= CNC(=O)c1cnc(N2CCC(C(=O)O)CC2)nc1Nc1cccc(-c2ncc(F)cn2)c1OC
Result :: 7.44

Query :: // lookup pKd | system=human TYK2 (JH2domain-pseudokinase) (Homo sapiens (Human)) | key= CNC(=O)c1cnc(N2CCNCC2C)nc1Nc1ccccc1OC (stereo not drawn) [Compound 31, Hydrochloride]
Result :: 5.32

Query :: // lookup pKd | system=human TYK2 (JH2domain-pseudokinase) (Homo sapiens (Human)) | key= COc1c(Nc2nc(N3CCCNCC3)ncc2C(N)=O)cccc1-c1ncc(F)cn1 [Compound 73, Hydrochloride]
Result :: 6.82

Query :: // lookup pKd | system=human TYK2 (JH2domain-pseudokinase) (Homo sapiens (Human)) | key= CNC(=O)c1cnc(N2CCCN(C(=O)OC(C)(C)C)CC2)nc1Nc1cccc(-c2ncc(F)cn2)c1OC
Result :: 5.35

Query :: // lookup pKd | system=human TYK2 (JH2domain-pseudokinase) (Homo sapiens (Human)) | key= CNC(=O)c1cnc(N2CCN(C(=O)OC(C)(C)C)CC2C)nc1Nc1cccc(-c2ncc(F)cn2)c1OC (stereo not drawn)
Result :: 6.72

Query :: // lookup pKd | system=human TYK2 (JH2domain-pseudokinase) (Homo sapiens (Human)) | key= CNC(=O)c1cnc(N2CCCN(C(C)=O)CC2)nc1Nc1ccccc1S(C)(=O)=O
Result :: 5.89

Query :: // lookup pKd | system=human TYK2 (JH2domain-pseudokinase) (Homo sapiens (Human)) | key= CNC(=O)[C@@H]1CCN(c2ncc(C(N)=O)c(Nc3cccc(-c4ncc(F)cn4)c3OC)n2)C1
Result :: 9.96

Query :: // lookup pKd | system=human TYK2 (JH2domain-pseudokinase) (Homo sapiens (Human)) | key= CC(=O)N1CCCN(c2ncc(C(N)=O)c(Nc3ccccc3S(C)(=O)=O)n2)CC1
Result :: 6.02

Query :: // lookup pKd | system=human TYK2 (JH2domain-pseudokinase) (Homo sapiens (Human)) | key= COc1ccccc1Nc1nc(N2CCNCC2C)ncc1C(N)=O (stereo not drawn) [Compound 42, hydrochloride]
Result :: 5.48

Query :: // lookup pKd | system=human TYK2 (JH2domain-pseudokinase) (Homo sapiens (Human)) | key= CC1CN(C(=O)OC(C)(C)C)CCN1c1ncc(C(N)=O)c(Nc2ccc(C3CC3)nc2)n1 (stereo not drawn)
Result :: 6.00

Query :: // lookup pKd | system=human TYK2 (JH2domain-pseudokinase) (Homo sapiens (Human)) | key= CC(C)(C)OC(=O)N1CCCN(c2ncc(C(N)=O)c(Nc3ccc(C4CC4)nc3)n2)CC1
Result :: 5.17

Query :: // lookup pKd | system=human TYK2 (JH2domain-pseudokinase) (Homo sapiens (Human)) | key= CNC(=O)c1cnc(N2CCN(C(C)=O)CC2C)nc1Nc1ccc(C2CC2)nc1 (stereo not drawn)
Result :: 5.40

Query :: // lookup pKd | system=human TYK2 (JH2domain-pseudokinase) (Homo sapiens (Human)) | key= COc1c(Nc2nc(N3CCN(C(=O)OC(C)(C)C)CC3C)ncc2C(N)=O)cccc1-c1ncc(F)cn1 (stereo not drawn)
Result :: 7.47

Query :: // lookup pKd | system=human TYK2 (JH2domain-pseudokinase) (Homo sapiens (Human)) | key= CC1CNCCN1c1ncc(C(N)=O)c(Nc2ccccc2S(C)(=O)=O)n1 (racemic) [Compound 63, hydrochloride]
Result :: 5.85
